# methodNotes: Growth inhibition of human SKOV3 cells assessed as cell growth at 10 uM incubated for 48 hrs by sulforhodamine B assay relative to control
# Type: functional
# particulars: SK-OV-3, 48 h, read-out: Activity
observable: growth at 10 µM (%)
Number in %, nothing else.

>  <chemicalString>
C[C@@H]1NC(c2ccc3ccccc3c2)=Nc2nc3ccccn3c2C1=O

>  <growth at 10 µM (%)>
40.5

$$$$
>  <chemicalString>
CC(C)(C)OC[C@@H]1NC(c2ccc(Br)cc2)=Nc2nc3ccccn3c2C1=O

>  <growth at 10 µM (%)>
64.3

$$$$
>  <chemicalString>
C[C@@H]1NC(c2ccc(Cl)cc2Cl)=Nc2nc3ccccn3c2C1=O

>  <growth at 10 µM (%)>
50.1

$$$$

Pending compound:
-- ask Returns the measured growth at 10 µM for the input compound. Input: C[C@@H]1NC(c2ccc(Cl)cc2)=Nc2nc3ccccn3c2C1=O
-- reply 75.5

----------
# systemTested: Mitogen-activated protein kinase kinase kinase kinase 4 (Homo sapiens)
# Sequence (O95819 whole entry): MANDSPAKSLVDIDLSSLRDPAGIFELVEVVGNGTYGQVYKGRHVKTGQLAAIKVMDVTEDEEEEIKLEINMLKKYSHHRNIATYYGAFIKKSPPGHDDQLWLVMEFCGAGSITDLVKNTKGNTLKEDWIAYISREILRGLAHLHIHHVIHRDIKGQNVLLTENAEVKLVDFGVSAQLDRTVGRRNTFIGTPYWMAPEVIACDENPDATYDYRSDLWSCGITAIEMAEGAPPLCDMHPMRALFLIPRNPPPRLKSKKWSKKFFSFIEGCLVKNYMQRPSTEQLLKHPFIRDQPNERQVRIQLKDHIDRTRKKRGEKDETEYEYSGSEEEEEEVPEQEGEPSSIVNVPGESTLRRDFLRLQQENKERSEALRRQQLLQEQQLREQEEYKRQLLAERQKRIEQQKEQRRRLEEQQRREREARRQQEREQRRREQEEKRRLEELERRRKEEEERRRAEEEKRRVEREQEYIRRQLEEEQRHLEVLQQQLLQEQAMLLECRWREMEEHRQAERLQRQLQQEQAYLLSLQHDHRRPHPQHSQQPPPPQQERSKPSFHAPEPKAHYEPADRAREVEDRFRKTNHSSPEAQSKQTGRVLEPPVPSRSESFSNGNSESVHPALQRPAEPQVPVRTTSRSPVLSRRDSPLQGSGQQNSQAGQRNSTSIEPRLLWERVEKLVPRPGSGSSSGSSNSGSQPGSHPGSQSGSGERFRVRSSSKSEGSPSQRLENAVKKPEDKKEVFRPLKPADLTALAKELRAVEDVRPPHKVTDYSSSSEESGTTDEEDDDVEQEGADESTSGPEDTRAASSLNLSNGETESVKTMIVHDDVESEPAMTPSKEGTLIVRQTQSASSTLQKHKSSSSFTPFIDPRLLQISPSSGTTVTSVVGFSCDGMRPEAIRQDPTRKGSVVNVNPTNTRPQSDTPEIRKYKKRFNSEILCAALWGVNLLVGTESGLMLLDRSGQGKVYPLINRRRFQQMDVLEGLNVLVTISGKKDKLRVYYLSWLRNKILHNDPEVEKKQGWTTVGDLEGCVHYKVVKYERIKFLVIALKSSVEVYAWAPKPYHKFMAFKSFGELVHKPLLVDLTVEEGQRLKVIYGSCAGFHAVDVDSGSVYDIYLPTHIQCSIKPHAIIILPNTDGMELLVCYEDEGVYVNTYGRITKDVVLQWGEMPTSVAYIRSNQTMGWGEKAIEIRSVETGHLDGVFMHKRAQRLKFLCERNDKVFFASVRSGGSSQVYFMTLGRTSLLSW
# methodNotes: Inhibition of recombinant human HGK using Ulight-FLGFTYVAP as substrate after 90 mins by LANCE assay
Catalogue of IC50 readings, one per entry.

As a guide, the following entries are already answered.
>  <chemicalString>
C[C@@H]1NC(c2ccc(-c3ccccc3)cc2)=Nc2nc3ccccn3c2C1=O

>  <result>
> 100 µM

$$$$
>  <chemicalString>
C[C@@H]1NC(c2ccc(Cl)cc2Cl)=Nc2nc3ccccn3c2C1=O

>  <result>
> 100 µM

$$$$
>  <chemicalString>
CC(C)[C@@H]1NC(c2ccc(Br)cc2)=Nc2nc3ccccn3c2C1=O

>  <result>
44 µM

$$$$
>  <chemicalString>
CC(=O)Nc1ccc(C2=Nc3nc4ccccn4c3C(=O)[C@H](C)N2)cc1

>  <result>
> 100 µM

$$$$
>  <chemicalString>
C[C@H]1NC(c2ccc(Br)cc2)=Nc2nc3ccccn3c2C1=O

>  <result>
> 100 µM

$$$$

-- ask Returns the measured IC50 for the input compound. Input: CC(C)(C)OC[C@@H]1NC(c2ccc(Br)cc2)=Nc2nc3ccccn3c2C1=O
-- reply 5.6 µM

----------
# methodNotes: Growth inhibition of human MDA-MB-468 cells assessed as cell growth at 10 uM incubated for 48 hrs by sulforhodamine B assay relative to control
# Format: functional
# particulars: MDA-MB-468, 48 h, read-out: Activity
observable: growth at 10 µM (%)
Number in %, nothing else.

>  <chemicalString>
C[C@@H]1NC(c2ccc3ccccc3c2)=Nc2nc3ccccn3c2C1=O

>  <observable>
growth at 10 µM

>  <numericReadout>
50.5

$$$$
>  <chemicalString>
C[C@@H]1NC(c2ccc(Cl)cc2)=Nc2nc3ccccn3c2C1=O

>  <observable>
growth at 10 µM

>  <numericReadout>
97.9

$$$$
>  <chemicalString>
CC(C)(C)OC[C@@H]1NC(c2ccc(Br)cc2)=Nc2nc3ccccn3c2C1=O

>  <observable>
growth at 10 µM

>  <numericReadout>
45.6

$$$$

Pending compound:
-- ask Returns the measured growth at 10 µM for the input compound. Input: C[C@@H]1NC(c2ccc(Cl)cc2Cl)=Nc2nc3ccccn3c2C1=O
-- reply 53.9

----------
Catalogue of GI50 readings, one per entry.
# methodNotes: Cytotoxicity against human MDA-MB-435 cells assessed as growth inhibition after 48 hrs by MTT assay
# Assay type: functional
# particulars: MDA-MB-435, 48 h
Number in µM, nothing else.

>  <chemicalString>
C[C@@H]1NC(c2ccc(-c3ccccc3)cc2)=Nc2nc3ccccn3c2C1=O

>  <GI50 (µM)>
40

$$$$

Pending molecule:
-- ask Returns the measured GI50 for the input molecule. Input: CC(C)(C)OC[C@@H]1NC(c2ccc(Br)cc2)=Nc2nc3ccccn3c2C1=O
-- reply 0.95

----------
# methodNotes: Cytotoxicity against human MDA-MB-435 cells assessed as growth inhibition after 48 hrs by MTT assay
# Assay type: functional
# particulars: MDA-MB-435, 48 h
Catalogue of GI50 readings, one per entry.
Number in µM, nothing else.

As a guide, the following entries are already answered.
>  <chemicalString>
C[C@@H]1NC(c2ccccc2Br)=Nc2nc3ccccn3c2C1=O

>  <measureUnit>
µM

>  <GI50>
8.35

$$$$
>  <chemicalString>
CC(C)[C@@H]1NC(c2ccc(Br)cc2)=Nc2nc3ccccn3c2C1=O

>  <measureUnit>
µM

>  <GI50>
50

$$$$

Pending compound:
-- ask Returns the measured GI50 for the input compound. Input: C[C@@H]1NC(c2ccc(Cl)cc2)=Nc2nc3ccccn3c2C1=O
-- reply 5

----------
Catalogue of growth at 10 µM readings, one per entry.
# methodNotes: Growth inhibition of human SR cells assessed as cell growth at 10 uM incubated for 48 hrs by sulforhodamine B assay relative to control
# Assay type: functional
# particulars: read-out: Activity
Number in %, nothing else.

As a guide, the following entries are already answered.
>  <chemicalString>
CC(C)(C)OC[C@@H]1NC(c2ccc(Br)cc2)=Nc2nc3ccccn3c2C1=O

>  <growth at 10 µM [%]>
35.4

$$$$
>  <chemicalString>
C[C@@H]1NC(c2ccc3ccccc3c2)=Nc2nc3ccccn3c2C1=O

>  <growth at 10 µM [%]>
30.5

$$$$
>  <chemicalString>
C[C@@H]1NC(c2ccc(Cl)cc2Cl)=Nc2nc3ccccn3c2C1=O

>  <growth at 10 µM [%]>
33

$$$$

Pending compound:
-- ask Returns the measured growth at 10 µM for the input compound. Input: C[C@@H]1NC(c2ccc(Cl)cc2)=Nc2nc3ccccn3c2C1=O
-- reply 46.7

----------
Catalogue of growth at 10 µM readings, one per entry.
# methodNotes: Growth inhibition of human MOLT4 cells assessed as cell growth at 10 uM incubated for 48 hrs by sulforhodamine B assay relative to control
# Type: functional
# particulars: MOLT-4, 48 h, read-out: Activity
Number in %, nothing else.

>  <chemicalString>
C[C@@H]1NC(c2ccc3ccccc3c2)=Nc2nc3ccccn3c2C1=O

>  <observable>
growth at 10 µM

>  <numericReadout>
34.5

$$$$
>  <chemicalString>
C[C@@H]1NC(c2ccc(Cl)cc2)=Nc2nc3ccccn3c2C1=O

>  <observable>
growth at 10 µM

>  <numericReadout>
88.5

$$$$
>  <chemicalString>
C[C@@H]1NC(c2ccc(Cl)cc2Cl)=Nc2nc3ccccn3c2C1=O

>  <observable>
growth at 10 µM

>  <numericReadout>
50.4

$$$$

-- ask Returns the measured growth at 10 µM for the input compound. Input: CC(C)(C)OC[C@@H]1NC(c2ccc(Br)cc2)=Nc2nc3ccccn3c2C1=O
-- reply 53.7

----------
Catalogue of growth at 10 µM readings, one per entry.
# methodNotes: Growth inhibition of human A498 cells assessed as cell growth at 10 uM incubated for 48 hrs by sulforhodamine B assay relative to control
# Type: functional
# particulars: A498, 48 h, read-out: Activity

>  <chemicalString>
C[C@@H]1NC(c2ccc3ccccc3c2)=Nc2nc3ccccn3c2C1=O

>  <growth at 10 µM>
47.2%

$$$$
>  <chemicalString>
C[C@@H]1NC(c2ccc(Cl)cc2)=Nc2nc3ccccn3c2C1=O

>  <growth at 10 µM>
118%

$$$$
>  <chemicalString>
C[C@@H]1NC(c2ccc(Cl)cc2Cl)=Nc2nc3ccccn3c2C1=O

>  <growth at 10 µM>
60.7%

$$$$

Pending compound:
-- ask Returns the measured growth at 10 µM for the input compound. Input: CC(C)(C)OC[C@@H]1NC(c2ccc(Br)cc2)=Nc2nc3ccccn3c2C1=O
-- reply 66.9%

----------
# methodNotes: Growth inhibition of human SF539 cells assessed as cell growth at 10 uM incubated for 48 hrs by sulforhodamine B assay relative to control
# Type: functional
# particulars: SF-539, 48 h, read-out: Activity
Catalogue of growth at 10 µM readings, one per entry.

-- ask Returns the measured growth at 10 µM for the input compound. Input: C[C@@H]1NC(c2ccc(Cl)cc2)=Nc2nc3ccccn3c2C1=O
-- reply 84.7%

-- ask Returns the measured growth at 10 µM for the input compound. Input: C[C@@H]1NC(c2ccc(Cl)cc2Cl)=Nc2nc3ccccn3c2C1=O
-- reply 53%

-- ask Returns the measured growth at 10 µM for the input compound. Input: C[C@@H]1NC(c2ccc3ccccc3c2)=Nc2nc3ccccn3c2C1=O
-- reply 37.2%

-- ask Returns the measured growth at 10 µM for the input compound. Input: CC(C)(C)OC[C@@H]1NC(c2ccc(Br)cc2)=Nc2nc3ccccn3c2C1=O
-- reply 75.8%

----------
# methodNotes: Growth inhibition of human OVCAR4 cells assessed as cell growth at 10 uM incubated for 48 hrs by sulforhodamine B assay relative to control
# Type: functional
# particulars: OVCAR-4, 48 h, read-out: Activity
observable: growth at 10 µM

As a guide, the following entries are already answered.
>  <chemicalString>
C[C@@H]1NC(c2ccc(Cl)cc2Cl)=Nc2nc3ccccn3c2C1=O

>  <growth at 10 µM>
89.5%

$$$$
>  <chemicalString>
C[C@@H]1NC(c2ccc3ccccc3c2)=Nc2nc3ccccn3c2C1=O

>  <growth at 10 µM>
74.5%

$$$$
>  <chemicalString>
C[C@@H]1NC(c2ccc(Cl)cc2)=Nc2nc3ccccn3c2C1=O

>  <growth at 10 µM>
109%

$$$$

Pending compound:
-- ask Returns the measured growth at 10 µM for the input compound. Input: CC(C)(C)OC[C@@H]1NC(c2ccc(Br)cc2)=Nc2nc3ccccn3c2C1=O
-- reply 82.3%
